Target: T1, purified recombinant human VEGF165 (human, UniProt P15692 27-191, glycosylated)
T1 construct: mature; Bought from Calbiochem; also called VEGF protein (Calbiochem); homodimeric VEGF protein
T1 sequence (P15692 other isoform, or with tags, fused parts or gaps limits assumed): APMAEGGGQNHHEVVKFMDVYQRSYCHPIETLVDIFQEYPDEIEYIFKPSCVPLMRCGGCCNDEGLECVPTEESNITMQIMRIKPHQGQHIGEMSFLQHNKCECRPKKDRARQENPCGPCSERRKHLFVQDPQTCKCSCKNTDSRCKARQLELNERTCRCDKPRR
Assay: SPR (BIAcore), purified scFv over VEGF immobilized on CM5 chip, 25 C
EXPERIMENTAL ENDPOINT: kon (M⁻¹ s⁻¹)
One number for each entry, in M⁻¹ s⁻¹.

Example binders with recorded kon:
Using the record for hAB12 (scFv, Single chain format; not shown: HA-His6 tag at C-terminus) scFv: EVQLVESGGGLVQPGGSLRLSCAASGYTFTNYGMNWVRQAPGKGLEWVGWINTYTGEPTYAADFKRRFTFSLDTSKSTAYLQMNSLRAEDTAVYYCAKYPYYYGRSHWYFDVWGQGTLVTVSSGGGGSGGGGSGGGGSDIQMTQSPSSLSASVGDRVTITCSASQDISNYLNWYQQKPGKAPKVLIYFTSSLHSGVPSRFSGSGSGTDFTLTISSLQPEDFATYYCQQYSTVPWTFGQGTKVEIK , state its measured kon.
2300

Fill in reported kon for this entry: hAB9 (scFv, Single chain format; not shown: HA-His6 tag at C-terminus) scFv: EVQLVQSGGGVVQPGGSLRLSCAASGYTFTNYGMNWVRQAPGKGLEWVGWINTYTGEPTYAADFKRRFTFSLDTSKSTAYLQMNSLRAEDTAVYYCAKYPYYYGRSHWYFDVWGQGTLVTVSSGGGGSGGGGSGGGGSDIQLTQSPSSLSASAGDRVTISCSASQDISNYLNWYQQKPGKAPQLLIYFTSSLHSGVPSRFSGSGSGTDFTLTISSLQPEDFATYYCQQYSTVPWTFGQGTKVEIK
2900

Tell me its kon given hAB11 (scFv, Single chain format; not shown: HA-His6 tag at C-terminus) scFv: EVQLVESGGGLVQPGGSLRLSCAASGYTFTNYGMNWVRQAPGKGLEWVGWINTYTGEPTYAADFKRRFTFSLDTSKSTAYLQMNSLRAEDTAVYYCAKYPHYYGRSHWYFDVWGQGTLVTVSSGGGGSGGGGSGGGGSDIQMTQSPSSLSASVGDRVTITCSASQDISNYLNWYQQKPGKAPKVLIYFTSSLHSGVPSRFSGSGSGTDFTLTISSLQPEDFATYYCQQYSTVPWTFGQGTKVEIK as the entry.
15900

Read the next record carefully.
Indicate its recorded kon; the binder in question is hAB10 (scFv, Single chain format; not shown: HA-His6 tag at C-terminus) scFv: EVQLVESGGGLVQPGGSLRLSCAASGYTFTNYGMNWVRQAPGKGLEWVGWINTYTGEPTYAADFKRRFTFSLDTSKSTAYLQMNSLRAEDTAVYYCAKYPYYYGTSHWYFDVWGQGTLVTVSSGGGGSGGGGSGGGGSDIQMTQSPSSLSASVGDRVTITCSASQDISNYLNWYQQKPGKAPKVLIYFTSSLHSGVPSRFSGSGSGTDFTLTISSLQPEDFATYYCQQYSTVPWTFGQGTKVEIK
1100
